Values were extracted from patent US9957267B2.

Entries and their EC50 values follow.
ASSAY SYSTEM: SSTR3 (UniProt P32745)
Sequence (P32745 whole entry): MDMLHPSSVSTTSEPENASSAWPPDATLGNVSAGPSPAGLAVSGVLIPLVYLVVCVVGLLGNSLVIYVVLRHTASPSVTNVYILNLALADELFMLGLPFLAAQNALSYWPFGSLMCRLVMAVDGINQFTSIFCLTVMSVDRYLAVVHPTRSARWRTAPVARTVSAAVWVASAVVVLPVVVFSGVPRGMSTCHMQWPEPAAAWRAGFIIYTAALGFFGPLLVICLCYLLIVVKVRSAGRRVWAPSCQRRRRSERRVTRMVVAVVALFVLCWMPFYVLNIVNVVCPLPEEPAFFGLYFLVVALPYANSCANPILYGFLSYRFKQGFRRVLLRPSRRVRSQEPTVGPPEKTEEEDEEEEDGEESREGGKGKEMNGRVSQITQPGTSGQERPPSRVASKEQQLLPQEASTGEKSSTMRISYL
ASSAY COMMENT: cAMP functional agonist assay, CHO cells expressing SSTR3
COND: CHO cells stably expressing SSTR3, cAMP

Example entries and their recorded answers appear below.
{"columns": ["MOLECULE", "OBSERVED PROPERTY", "REPORTED"],
 "data": [
  ["Cc1cc(C)cc(-c2cnc3ncn(-c4cccc(O)c4)c(=O)c3c2CN(C)C[C@H](C)N)c1", "EC50", "0.1 to 10 µM"],
  ["Cc1cc(Cl)cc(-c2cnc3ncn(-c4cc(O)cc(F)c4)c(=O)c3c2CN(C)C[C@@H]2CCCN2)c1", "EC50", "< 0.1 µM"],
  ["Cc1cc(Cl)cc(-c2cnc3ncn(-c4cc(F)cc(C(N)=O)c4)c(=O)c3c2CN(C)C[C@H]2CCCN2)c1", "EC50", "< 0.1 µM"],
  ["Cc1cc(Cl)cc(-c2cnc3ncn(-c4cccc(O)c4)c(=O)c3c2CN(C)C[C@@H]2CCCCN2)c1", "EC50", "< 0.1 µM"]
]}

input: Which EC50 value belongs to Cc1c(F)cccc1-c1cnc2ncn(-c3cccc(O)c3)c(=O)c2c1CN(C)CC1CCCCN1 (stereo not shown) ?
output: < 0.1 µM

input: How about `Cc1cc(C)cc(-c2cnc3nc(C)n(-c4cc(O)cc(F)c4)c(=O)c3c2CN(C)C[C@@H]2CCCN2)c1` ?
output: 0.1 to 10 µM

input: Moving on to the next molecule: Cc1ccccc1-c1cnc2ncn(-c3cccc(O)c3)c(=O)c2c1CN(C)CC1CCCCN1 (stereo not shown)
output: 0.1 to 10 µM

* * *

ASSAY SYSTEM: SSTR3 (UniProt P32745)
ASSAY COMMENT: cAMP functional agonist assay, CHO cells expressing SSTR3
COND: CHO cells stably expressing SSTR3, cAMP
Items are presented alongside their recorded EC50.

Before answering, review these 5 worked examples.
{"columns": ["COMPOUND", "EC50"],
 "data": [
  ["CCCN(CCN)Cc1c(-c2cc(C)cc(C)c2)cnc2ncn(-c3cccc(O)c3)c(=O)c12", "100 to 10000 nM"],
  ["CNC(=O)c1cccc(-n2cnc3ncc(-c4cc(C)cc(C)c4)c(CN(C)C[C@@H]4CCCN4)c3c2=O)c1", "100 to 10000 nM"],
  ["CN(Cc1c(-c2cc(Cl)cc(CO)c2)cnc2ncn(-c3cccc(O)c3)c(=O)c12)C[C@@H]1CCCN1", "< 100 nM"],
  ["Cc1cc(C)cc(-c2cnc3ncn(-c4cccc(O)c4)c(=O)c3c2CN(C)C[C@@H]2CCCCN2)c1", "< 100 nM"],
  ["Cc1cc(C)cc(-c2cnc3ncn(-c4cccc(O)c4)c(=O)c3c2CN(C)CC2COCCN2)c1 (stereo not shown)", "< 100 nM"]
]}

input: Return reported EC50; argument: `Cc1cc(C)cc(-c2cnc3ncn(-c4cc(O)cc(F)c4)c(=O)c3c2CN(C)C[C@@H]2CCCCN2)c1`
output: < 100 nM

input: Item: `Cc1cc(F)cc(-c2cnc3ncn(-c4cccc(O)c4)c(=O)c3c2CN(C)C[C@@H]2CCCN2)c1`
output: 100 to 10000 nM

* * *

This listing pairs molecules with measured pEC50.
ASSAY SYSTEM: human somatostatin receptor subtype 2a (Homo sapiens)
Sequence (P30874 whole entry): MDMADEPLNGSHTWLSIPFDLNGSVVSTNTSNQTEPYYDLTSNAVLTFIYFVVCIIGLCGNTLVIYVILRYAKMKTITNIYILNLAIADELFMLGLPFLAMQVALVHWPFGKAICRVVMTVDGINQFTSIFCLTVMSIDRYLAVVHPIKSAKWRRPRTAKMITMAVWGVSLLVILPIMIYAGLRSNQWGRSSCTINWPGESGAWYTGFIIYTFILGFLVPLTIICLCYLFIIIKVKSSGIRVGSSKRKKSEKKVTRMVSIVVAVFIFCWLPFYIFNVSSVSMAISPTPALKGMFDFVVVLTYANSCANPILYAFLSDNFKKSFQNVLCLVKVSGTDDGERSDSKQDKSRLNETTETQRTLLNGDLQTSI
ASSAY COMMENT: cAMP assay for SSTR2a agonists (HTRF cAMP kit, NKH-477 stimulated)
COND: CHO cells stably expressing human SSTR2a, 1.6 μM NKH-477
Experimental: Chinese hamster ovary (CHO) cells stably expressing one of the six human or rodent somatostatin receptor subtypes are grown to 85-100% confluence on standard tissue culture dishes in F12-Ham's growth media (Hyclone) with following additives: 10% donor calf serum (Hyclone), 200 U/mL penicillin (Hyclone), 200 μg/mL streptomycin (Hyclone), 20 mM HEPES (Hyclone), 200 μg/mL hygromycin Hyclone. […]
pEC50: −log10 of the molar value.

Example entries begin here.
{"columns": ["MOLECULE", "OBSERVED PROPERTY", "REPORTED"],
 "data": [
  ["CC(C)c1cccc(-c2cnc3ncn(-c4cccc(O)c4)c(=O)c3c2CN(C)CC2CCCCN2)c1 (centres unmarked)", "pEC50", "5.00 to 7.00"],
  ["CC[C@H](N)CN(C)Cc1c(-c2cc(C)cc(Cl)c2)cnc2ncn(-c3cc(O)cc(C(F)(F)F)c3)c(=O)c12", "pEC50", "> 7.00"],
  ["CN(Cc1c(-c2cccc(CCO)c2)cnc2ncn(-c3cccc(O)c3)c(=O)c12)C[C@@H]1CCCN1", "pEC50", "> 7.00"],
  ["CCOC(=O)CNCCN(CC)Cc1c(-c2cc(C)cc(C)c2)cnc2ncn(-c3cccc(O)c3)c(=O)c12", "pEC50", "5.00 to 7.00"]
]}

// below: pEC50 requested for another molecule
input: Fill in the blank: the reported pEC50 of CN(Cc1c(-c2cccc3ccccc23)cnc2ncn(-c3cccc(O)c3)c(=O)c12)CC1CCCCN1 (centres unmarked) is ____.
output: > 7.00

* * *

Recorded pEC50, one value per entry.
ASSAY SYSTEM: SSTR5 (Homo sapiens, UniProt P35346)
Construct: expressed in transfected cells
Sequence (P35346 whole entry): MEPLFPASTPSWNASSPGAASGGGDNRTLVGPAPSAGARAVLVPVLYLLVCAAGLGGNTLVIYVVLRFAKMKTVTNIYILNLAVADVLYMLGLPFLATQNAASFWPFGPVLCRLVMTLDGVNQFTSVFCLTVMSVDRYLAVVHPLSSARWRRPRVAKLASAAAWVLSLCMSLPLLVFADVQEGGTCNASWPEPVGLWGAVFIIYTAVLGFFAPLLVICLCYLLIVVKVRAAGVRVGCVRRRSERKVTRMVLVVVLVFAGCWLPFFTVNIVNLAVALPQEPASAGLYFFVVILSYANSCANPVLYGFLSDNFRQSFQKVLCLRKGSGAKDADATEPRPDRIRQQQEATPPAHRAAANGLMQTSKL
ASSAY COMMENT: cAMP functional agonist assay, CHO cells expressing SSTR5
Assay type: cell-based
COND: CHO cells stably expressing SSTR5, cAMP
Description: Chinese hamster ovary (CHO) cells stably expressing one of the six human or rodent somatostatin receptor subtypes are grown to 85-100% confluence on standard tissue culture dishes in F12-Ham's growth media (Hyclone) with following additives: 10% donor calf serum (Hyclone), 200 U/mL penicillin (Hyclone), 200 μg/mL streptomycin (Hyclone), 20 mM HEPES (Hyclone), 200 μg/mL hygromycin Hyclone. […]
pEC50: −log10 of the molar value.

{"columns": ["COMPOUND", "ASSAY SYSTEM", "pEC50"],
 "data": [
  ["CN(Cc1c(-c2cccc(CO)c2)cnc2ncn(-c3cccc(O)c3)c(=O)c12)C[C@@H]1CCCN1", "SSTR5 (Homo sapiens, UniProt P35346)", "< 5.00"],
  ["Cc1cc(CO)cc(-c2cnc3ncn(-c4cccc(O)c4)c(=O)c3c2CN(C)C[C@@H]2CCCN2)c1", "SSTR5 (Homo sapiens, UniProt P35346)", "< 5.00"],
  ["Cc1cc(Cl)cc(-c2cnc3ncn(-c4cc(F)cc(C(N)=O)c4)c(=O)c3c2CN(C)C[C@H]2CCCN2)c1", "SSTR5 (Homo sapiens, UniProt P35346)", "< 5.00"],
  ["Cc1cc(C)cc(-c2cnc3ncn(-c4cccc(O)c4)c(=O)c3c2CN(C)CCN)c1", "SSTR5 (Homo sapiens, UniProt P35346)", "< 5.00"],
  ["Cc1cc(Cl)cc(-c2cnc3ncn(-c4cc(O)cc(F)c4)c(=O)c3c2CN(C)C[C@@H]2CCCCN2)c1", "SSTR5 (Homo sapiens, UniProt P35346)", "5.00 to 7.00"],
  ["Cc1ccccc1-c1cnc2ncn(-c3cccc(O)c3)c(=O)c2c1CN(C)CC1CCCCN1 (stereo not drawn)", "SSTR5 (Homo sapiens, UniProt P35346)", "< 5.00"],
  ["Cc1cc(Cl)cc(-c2cnc3nc(C)n(-c4cc(O)cc(F)c4)c(=O)c3c2CN(C)C[C@@H]2CCCN2)c1", "SSTR5 (Homo sapiens, UniProt P35346)", "5.00 to 7.00"],
  ["CC[C@H](N)CN(C)Cc1c(-c2cc(C)cc(Cl)c2)cnc2ncn(-c3cc(O)cc(C(F)(F)F)c3)c(=O)c12", "SSTR5 (Homo sapiens, UniProt P35346)", "5.00 to 7.00"]
]}

input: Bench note: what pEC50 did `Cc1cc(Cl)cc(-c2cnc3ncn(-c4cc(O)cc(Cl)c4)c(=O)c3c2CN(C)C[C@@H]2CCCN2)c1` show?
output: < 5.00

input: Next compound: `Cc1cc(Cl)cc(-c2cnc3ncn(-c4cc(O)cc(F)c4)c(=O)c3c2CN(C)C[C@@H]2CCCN2)c1`
output: 5.00 to 7.00

* * *

The compounds listed here are annotated with their pEC50.
ASSAY SYSTEM: SSTR1 (Homo sapiens, UniProt P30872)
Construct: expressed in transfected cells
Sequence (P30872 whole entry): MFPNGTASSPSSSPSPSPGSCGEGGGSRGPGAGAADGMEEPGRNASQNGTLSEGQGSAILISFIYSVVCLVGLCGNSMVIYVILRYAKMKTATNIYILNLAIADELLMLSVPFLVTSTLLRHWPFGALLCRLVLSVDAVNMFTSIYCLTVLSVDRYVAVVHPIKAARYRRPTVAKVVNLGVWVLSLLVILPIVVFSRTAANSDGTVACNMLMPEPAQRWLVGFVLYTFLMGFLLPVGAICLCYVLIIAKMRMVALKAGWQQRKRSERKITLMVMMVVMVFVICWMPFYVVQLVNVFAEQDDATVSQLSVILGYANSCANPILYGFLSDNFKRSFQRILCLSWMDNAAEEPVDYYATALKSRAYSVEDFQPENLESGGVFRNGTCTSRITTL
ASSAY COMMENT: cAMP functional agonist assay, CHO cells expressing SSTR1
Type: cell-based
COND: CHO cells stably expressing SSTR1, cAMP; read-out: SSTR1 EC50
Procedure: Chinese hamster ovary (CHO) cells stably expressing one of the six human or rodent somatostatin receptor subtypes are grown to 85-100% confluence on standard tissue culture dishes in F12-Ham's growth media (Hyclone) with following additives: 10% donor calf serum (Hyclone), 200 U/mL penicillin (Hyclone), 200 μg/mL streptomycin (Hyclone), 20 mM HEPES (Hyclone), 200 μg/mL hygromycin Hyclone. […]
pEC50: −log10 of the molar value.

{"columns": ["STRUCTURE STRING", "REPORTED"],
 "data": [
  ["CCN(Cc1c(-c2cc(C)cc(C)c2)cnc2ncn(-c3cccc(O)c3)c(=O)c12)C[C@H](C)N", "5.00 to 7.00"],
  ["CC[C@H](N)CN(C)Cc1c(-c2cc(C)cc(C)c2)cnc2ncn(-c3cc(O)cc(F)c3)c(=O)c12", "5.00 to 7.00"]
]}

Please turn your attention to the following entry.
input: Give SSTR1 (Homo sapiens, UniProt P30872) pEC50 for `Cc1cc(Cl)cc(-c2cnc3ncn(-c4cc(O)ccc4F)c(=O)c3c2CN(C)C[C@@H]2CCCN2)c1`
output: 5.00 to 7.00
